molecular target: human Fc (human); assay: ELISA; negative control
For each record, write down the corresponding optical density.
Kindly answer with a numeric value in OD, unit omitted.

Asked: Query: optical density; subject: 376_C11 (antibody, V domains shown) VH: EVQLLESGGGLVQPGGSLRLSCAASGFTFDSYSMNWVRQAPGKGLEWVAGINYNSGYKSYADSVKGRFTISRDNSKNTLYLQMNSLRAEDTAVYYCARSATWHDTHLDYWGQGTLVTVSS VL: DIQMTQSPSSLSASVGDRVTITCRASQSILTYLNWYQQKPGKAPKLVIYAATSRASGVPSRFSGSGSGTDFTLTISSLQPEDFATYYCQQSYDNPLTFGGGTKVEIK
Given back: 0.23

Asked: Could you do the same for 367_A09 (antibody, V domains shown) VH: EVQLLESGGGLVQPGGSLRLSCAASGFTFDSYGMNWVRQAPGKGLEWVAGINYNGGYTSYADSVKGRFTISRDNSKNTLYLQMNSLRAEDTAVYYCARSATWHDTHLDYWGQGTLVTVSS VL: DIQMTQSPSSLSASVGDRVTITCRASQSILSYVNWYQQKPGKAPKLVIYAATSRHSGVPSRFSGSGSGTDFTLTISSLQPEDFATYYCQQSYDTPLTFGGGTKVEIK , please?
Given back: 0.259

Asked: Could you do the same for 368_G09 (antibody, V domains shown) VH: EVQLLESGGGLVQPGGSLRLSCAASGFTFDSYGMHWVRQAPGKGLEWVANINYNGGYTSYADSVKGRFTISRDNSKNTLYLQMNSLRAEDTAVYYCARSATWHDTHLDYWGQGTLVTVSS VL: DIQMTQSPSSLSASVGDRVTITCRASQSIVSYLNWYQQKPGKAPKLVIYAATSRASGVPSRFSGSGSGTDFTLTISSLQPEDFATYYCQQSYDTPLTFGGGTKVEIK , please?
Given back: 0.281

Asked: Could you do the same for 376_C02 (antibody, V domains shown) VH: EVQLLESGGGLVQPGGSLRLSCAASGFTFDSYGMNWVRQAPGKGLEWVSGINYNSGYTSYADSVKGRFTISRDNSKNTLYLQMNSLRAEDTAVYYCARSANWHDTALDYWGQGTLVTVSS VL: DIQMTQSPSSLSASVGDRVTITCRASQSIVSYLNWYQQKPGKAPKLVIYAVTSRASGVPSRFSGSGSGTDFTLTISSLQPEDFATYYCQQSYDSPLTFGGGTKVEIK , please?
Given back: 0.222

Asked: Could you do the same for 376_E08 (antibody, V domains shown) VH: EVQLLESGGGLVQPGGSLRLSCAASGFTFSDYGMNWVRQAPGKGLEWVAGINYNGGYTSYADSVKGRFTISRDNSKNTLYLQMNSLRAEDTAVYYCARSANWHDTALDYWGQGTLVTVSS VL: DIQMTQSPSSLSASVGDRVTITCRASQSIVSYVNWYQQKPGKAPKLVIYAATSRASGVPSRFSGSGSGTDFTLTISSLQPEDFATYYCQQSYDSPLTFGGGTKVEIK , please?
Given back: 0.332

Asked: Could you do the same for 373_F03 (antibody, V domains shown) VH: EVQLLESGGGLVQPGGSLRLSCAASGFTFDSYSMNWVRQAPGKGLEWVANINYNSGYTGYADSVKGRFTISRDNSKNTLYLQMNSLRAEDTAVYYCARSATWHDTHLDYWGQGTLVTVSS VL: DIQMTQSPSSLSASVGDRVTITCRASQSILTYVNWYQQKPGKAPKLLIYAATSRHSGVPSRFSGSGSGTDFTLTISSLQPEDFATYYCQQSYDSPLTFGGGTKVEIK , please?
Given back: 0.179

Asked: Could you do the same for 374_F10 (antibody, V domains shown) VH: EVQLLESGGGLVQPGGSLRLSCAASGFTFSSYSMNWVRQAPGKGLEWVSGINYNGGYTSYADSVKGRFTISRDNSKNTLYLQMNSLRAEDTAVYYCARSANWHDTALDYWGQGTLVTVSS VL: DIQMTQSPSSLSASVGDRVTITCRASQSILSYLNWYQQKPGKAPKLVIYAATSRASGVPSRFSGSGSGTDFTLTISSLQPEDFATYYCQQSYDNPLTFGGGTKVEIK , please?
Given back: 0.524

Asked: Could you do the same for 376_B01 (antibody, V domains shown) VH: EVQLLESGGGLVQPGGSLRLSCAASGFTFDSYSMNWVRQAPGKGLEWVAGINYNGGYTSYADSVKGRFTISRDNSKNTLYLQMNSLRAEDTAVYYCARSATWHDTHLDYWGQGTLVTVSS VL: DIQMTQSPSSLSASVGDRVTITCRASQSILTYVNWYQQKPGKAPKLVIYAATSRASGVPSRFSGSGSGTDFTLTISSLQPEDFATYYCQQSYNLPLTFGGGTKVEIK , please?
Given back: 0.308

Asked: Could you do the same for 374_C04 (antibody, V domains shown) VH: EVQLLESGGGLVQPGGSLRLSCAASGFTFSSYSMNWVRQAPGKGLEWVAGINYNSGYKSYADSVKGRFTISRDNSKNTLYLQMNSLRAEDTAVYYCARSATWHDTHLDYWGQGTLVTVSS VL: DIQMTQSPSSLSASVGDRVTITCRASQSILTYLNWYQQKPGKAPKLLIYAASSLQSGVPSRFSGSGSGTDFTLTISSLQPEDFATYYCQQSYELPLTFGGGTKVEIK , please?
Given back: 0.201

Asked: Could you do the same for 374_E05 (antibody, V domains shown) VH: EVQLLESGGGLVQPGGSLRLSCAASGFTFSSYSMNWVRQAPGKGLEWVAGINYNGGYTSYADSVKGRFTISRDNSKNTLYLQMNSLRAEDTAVYYCARSANWHDTALDYWGQGTLVTVSS VL: DIQMTQSPSSLSASVGDRVTITCRASQSILSFVNWYQQKPGKAPKLVIYAATSRASGVPSRFSGSGSGTDFTLTISSLQPEDFATYYCQQSYNLPLTFGGGTKVEIK , please?
Given back: 0.244
